B1: Twister Ribozyme (parent)
chain: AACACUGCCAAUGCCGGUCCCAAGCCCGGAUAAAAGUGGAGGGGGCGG

Variants of: B1
Test: self-cleavage, relative activity (ratio to wild type); higher = more cleavage; co-transcriptional
As shown below, each of these variants has a reported self-cleavage value.

RECORD_SEQUENCE	self-cleavage
AACACUGCCAAUGCCGGUCCCAAGACCGUAUAAAAGUGGAGGGGGCGG	0.24
AACACUGCCAAUGCCGGUCCCACGCCCGGAUAAAAGUGGAGGGGGCUG	0.145
AACACUGCCAAUGCCGGUCCCAAUCCCAGAUAAAAGUGGAGGGGGCGG	0.0754
AACACUGCCAAUGCCGGUGCCAAGCCCGGAUAAAUGUGGAGGGGGCGG	0.34
AAUACUGCCAAUGCCGGUCCCACGCCCGGAUAAAAGUGGAGGGGGCGG	0.12
AACACUGCCAUUGCCGGUCCCAAGCCCGGAUAAAAGUGGAGGGGCCGG	0.733
AACACUGCCAAUGCCGGUCCCAAGCCCCGAUAAAAGUGGAGGGCGCGG	0.666
AACACUGCCGAUGCCGGACCCAAGCCCGGAUAAAAGUGGAGGGGGCGG	0.841
AACACUGCCAAUGCCGGUCCCAAGCCUGGAUAACAGUGGAGGGGGCGG	0.0865
AACACUGCCAAUGCCCGUCCCAAGCCCGUAUAAAAGUGGAGGGGGCGG	0.194
AACACUGCGAAUGCCGGUCCCAAGCCCGGAUAAAAGUAGAGGGGGCGG	0.278
AAUACUGCCAAUGCCGGUCCCAAGCACGGAUAAAAGUGGAGGGGGCGG	0.148
AAAACUGCCAAUGACGGUCCCAAGCCCGGAUAAAAGUGGAGGGGGCGG	0.15
AACACUGCCAAUGCGGGUCCCAAGGCCGGAUAAAAGUGGAGGGGGCGG	0.0786
AUCACUGCCAAUGCCGGUCCCAUGCCCGGAUAAAAGUGGAGGGGGCGG	0.106
AACAAUGCCAACGCCGGUCCCAAGCCCGGAUAAAAGUGGAGGGGGCGG	0.462
AACACUGCCAAUGCCGGUCCCAAGCCCGGAUAAAAGUGGAGGGGGUGU	1.01
GACACUGCCAAUGCCGGUCCCAAGCCCGGUUAAAAGUGGAGGGGGCGG	0.436
AACACUGCCAAUGCCGGUCCCAAUCCCGGAAAAAAGUGGAGGGGGCGG	0.113
AACACUGCCAAUGCCGGUCCCAAUCCCGAAUAAAAGUGGAGGGGGCGG	0.127
AACACUGCCAAUGCAGGUCCCAAGCCCGGAUAAAAGUAGAGGGGGCGG	0.4
AACACUGCCAAUGCCGGUCCCAAGACCGGAUAAAAGUGGAGGGGGCUG	0.0657
AACACUGCCAAUGCCGGUCCCAAGCCCGGAUCAAAGGGGAGGGGGCGG	0.625
AACACUGCCAAUGCCGAUCCCAAGACCGGAUAAAAGUGGAGGGGGCGG	0.164
AACACUGCCAAUGCCGGUCCCAAGCCCGGAUAAAAGGGGAGGGGGCGA	0.844
AACAAUGCCAAUGCCGGUCCCAAGCCCGGAUGAAAGUGGAGGGGGCGG	0.542
AACACUGCCAUUGCCGGUCCCAAGCACGGAUAAAAGUGGAGGGGGCGG	0.674
AACACUGCCAAUGCCGGGCCCAAGCCCGGGUAAAAGUGGAGGGGGCGG	0.0594
AACACUACCAAUGCCGGUCCCAAGACCGGAUAAAAGUGGAGGGGGCGG	0.0809
AACACUGCCAAUGCUGGUCCCAAGCCCGGAUAAAAGUGGAGGGGUCGG	0.817
UACACUGCCAAUGCCGGUCCCAAGCCCGGAUAAAAUUGGAGGGGGCGG	0.0701
AACACUGCCAAUGCGGGUCCCAAGCCCGGAUAAAAGUGGAGGGGGCGU	0.0875
AACACUGCCAAUGCCGGUCCCAAGCCCGGAUAAAAGUCCAGGGGGCGG	0.127
AACACUGCCAGUGCCGGUCCCAAGCCCGGAUAAAAGUGGAGGGGGCCG	0.528
AACACUGCCAAUGCCGGUCCCUAGCCCGGAUAAAAGUGGAGGGGACGG	0.678
AACACUGCCAAUGCCGGUCCCAAGCCCGGAUAACAGUGGAGAGGGCGG	0.143
ACCACUGCCAAUGCCGGUCCCAACCCCGGAUAAAAGUGGAGGGGGCGG	0.0423
AACACUGCCAAUGCCGGUCCCAAGCCCGGAUAAAAGGGGAGGGGGCGG	0.861
AACACUGCCAAUGCCGAUCCCGAGCCCGGAUAAAAGUGGAGGGGGCGG	0.136
AACACUGCCAAUGCCGGUCCCAAGGCCGGAUAAAAGUGGAGGGGGCGU	0.21
AACACUGCUAAUGCCGGUGCCAAGCCCGGAUAAAAGUGGAGGGGGCGG	0.101
AACACUACCAAUGCCGGUCCCAAGCCCGGAUAAAAGUGGAGGGGGCUG	0.19
GACACUGCCAAUGCCGGCCCCAAGCCCGGAUAAAAGUGGAGGGGGCGG	0.335
AACACUGCCAAUGCCGGUCACAAGCCCGGAUAAAAGUGGAGGCGGCGG	0.0847
AACACUCCCAAUGCCGGACCCAAGCCCGGAUAAAAGUGGAGGGGGCGG	0.0787
AACACUGCCAAUGCAGGUCCCAAGCCCGGAUAAAAGUGGAGGGGGCUG	0.332
AACACUCCCAAUGCCGGUCCCAAGCCCUGAUAAAAGUGGAGGGGGCGG	0.093
AAAACUGCCAAUGCCGGUCCCAAGCCCGGAUAAAAGUGGAGGUGGCGG	0.0615
AACACUGCCAAUGCCGGUCCCAAGCCCGGAUAAAAUUGGAGGGGGCUG	0.412
AACACCGCCAAUGCCGGUCCCAAGCCCGGUUAAAAGUGGAGGGGGCGG	0.493
AACACUGCCAAUUCGGGUCCCAAGCCCGGAUAAAAGUGGAGGGGGCGG	0.108
AACACUGCCAAUGCCGGUCCCAAGCCCGGAUAACAGUGGAGGGGGCAG	0.122
UACACUGCCAAUGCCAGUCCCAAGCCCGGAUAAAAGUGGAGGGGGCGG	0.0911
AACACUGCCAAUGCCGGUCCCAAGCCCGCAUAAAAGUGGAAGGGGCGG	0.108
AACACUUCCAAUGCCGGUCCCAAGUCCGGAUAAAAGUGGAGGGGGCGG	0.302
AACACUGCCAAUGCCGGUCCCAAGGCCGGAUAAGAGUGGAGGGGGCGG	0.124
AACACUGCCAAUGCCGGUCCCAAUCCCGGAUAAUAGUGGAGGGGGCGG	0.116
AACACUGCCAAUGCCGGUCGCAAGCCCGGAUAAAAGUGGAGGGGGUGG	0.119
AACACUGCCAAUGCCGGUCCCAAGCCAGGAUAAAAGUGGAGGGGGCGU	0.397
AACACUGCCAAUGCCGGUCACAAGCCCGAAUAAAAGUGGAGGGGGCGG	0.138
AACACUGCCAAUGCCGGUCGCCAGCCCGGAUAAAAGUGGAGGGGGCGG	0.147
AACACUGCCAAUGUCGGUCCCAAGCCCGGAUAAAAGUGGAGUGGGCGG	0.486
AACACUGCCAAUGCCGGUCCAAAGCCCGGAUAAAAGUGGAGGCGGCGG	0.0785
AAAACUGCCAACGCCGGUCCCAAGCCCGGAUAAAAGUGGAGGGGGCGG	0.425
AACAUUGCCAAUGCCGGUCCCAAGCCCGGAUAAAAGUGUAGGGGGCGG	0.175
AACACUGCAAAUGCCGUUCCCAAGCCCGGAUAAAAGUGGAGGGGGCGG	0.0549
AACACUGCCAAUGCCGGUCCCAAGCCCGGAUAAAAGUCGAGGGGGCGU	1.06
AGCACUGCCAAUGCCGGUCCCAAGCCCGGAUAAAAGUGGAGCGGGCGG	0.157
AGCACUGCCAAUGCCGGUCCCAAGCCCGGAUCAAAGUGGAGGGGGCGG	0.414
AACACUGCCAAUGCCGGUCCCAAGCCCGGAUAAAACUGGAGGGGGCCG	0.171
